Assay Overview: Cytotoxicity against African green monkey Vero cells assessed as cell growth inhibition incubated for 48 hrs by MTT assay
Assay type: toxicity, cell-based
Study Conditions: African green monkey (Chlorocebus sabaeus)
Note to self: use yes (1) only for IC50 at 48 h readings below 7 µM; a reading exactly at 7 µM still gets no (0).

Use these answered entries as a reference point.
>>> label_value("COc1cc(-c2c(O)cc(OC)c(Cc3c(OC)cc(O)c(-c4cc(OC)cc5cc6c(c(O)c45)C(=O)c4c(O)cc(O)cc4C6(C)C)c3C)c2C)c2c(O)c3c(cc2c1)C(C)(C)c1cc(O)cc(O)c1C3=O")
"no (0)"
>>> label_value("COc1cc(-c2c(O)cc(OC)c(Cc3c(OC)cc(C)c(-c4cc(OC)cc5cc6c(c(O)c45)C(=O)c4c(O)cc(O)cc4C6(C)C)c3O)c2C)c2c(O)c3c(cc2c1)C(C)(C)c1cc(O)cc(O)c1C3=O")
"no (0)"
>>> label_value("COc1cc(C)c(-c2cc(OC)c(Br)c3cc4c(c(O)c23)C(=O)c2c(O)cc(O)cc2C4(C)C)c(O)c1")
"yes (1)"
>>> label_value("COc1cc(C)c(-c2cc(OC)cc3cc4c(c(O)c23)C(=O)c2c(O)cc(OC)cc2C4(C)C)c(O)c1")
"no (0)"
>>> label_value("COc1cc(-c2c(O)cc(OC)c(OC)c2C)c2c(O)c3c(cc2c1)C(C)(C)c1cc(O)cc(O)c1C3=O")
"yes (1)"

Now let's try a different one.
Is it true that IC50 at 48 h reported for COc1cc(C)c(-c2cc(OC)cc3cc4c(c(O)c23)C(=O)c2c(cc(OC)c(Br)c2O)C4(C)C)c(O)c1 is less than 7 µM?
no (0)

* * *

Tested on: HepG2
Assay Overview: Cytotoxicity against human HepG2 cells assessed as cell growth inhibition incubated for 48 hrs by MTT assay
Type: functional, cell-based
Study Conditions: HepG2, 48 h
Returns: string. Value is TRUE if measured IC50 is below 6 µM, and FALSE if it is greater than or equal to it.

These solved cases illustrate the format of a correct answer.
>>> label_value("COc1cc(C)c(-c2cc(O)cc3cc4c(c(O)c23)C(=O)c2c(O)cc(OC)cc2C4(C)C)c(O)c1")
"FALSE"
>>> label_value("COc1cc(C)c(-c2cc(OC)cc3cc4c(c(O)c23)C(=O)c2c(O)cc(OC)cc2C4(C)C)c(O)c1")
"TRUE"
>>> label_value("COc1cc(-c2c(O)cc(OC)c(Cc3c(OC)cc(O)c(-c4cc(OC)cc5cc6c(c(O)c45)C(=O)c4c(O)cc(O)cc4C6(C)C)c3C)c2C)c2c(O)c3c(cc2c1)C(C)(C)c1cc(O)cc(O)c1C3=O")
"FALSE"

Okay, next one:
Dear reviewer, please state whether COc1cc(C)c(-c2cc(OC)cc3cc4c(c(O)c23)C(=O)c2c(cc(O)c(Br)c2O)C4(C)C)c(O)c1 has IC50 strictly beneath 6 µM.
TRUE

* * *

System: MCF7
Assay Overview: Cytotoxicity against human MCF7 cells assessed as cell growth inhibition incubated for 48 hrs by MTT assay
Type: functional, cell-based
Study Conditions: MCF7, 48 h
pIC50: −log10 of the molar value.
Rule: pIC50 of 5 or more gives 1; anything lower gives 0.

Example entries begin here.
>>> label_value("COc1cc(C)c(-c2cc(O)cc3cc4c(c(O)c23)C(=O)c2c(cc(OC)c(Br)c2O)C4(C)C)c(O)c1")
1
>>> label_value("COc1cc(-c2c(O)cc(OC)c(Cc3c(OC)cc(O)c(-c4cc(OC)cc5cc6c(c(O)c45)C(=O)c4c(O)cc(O)cc4C6(C)C)c3C)c2C)c2c(O)c3c(cc2c1)C(C)(C)c1cc(O)cc(O)c1C3=O")
0

Could you now look at the following compound, please?
Could you verify whether the entry COc1cc(C)c(-c2cc(OC)cc3cc4c(c(O)c23)C(=O)c2c(O)cc(OC)cc2C4(C)C)c(O)c1 shows pIC50 of no less than 5?
1

* * *

Tested on: MCF7
Assay Overview: Cytotoxicity against human MCF7 cells assessed as cell growth inhibition incubated for 48 hrs by MTT assay
Assay type: functional, cell-based
Study Conditions: MCF7, 48 h
# maps each entry to its pIC50
Scale: negative log10 of molar concentration, which is what pIC50 denotes.

# annotated cases, reported pIC50 shown
>>> observed_measurement("COc1cc(C)c(-c2cc(OC)cc3cc4c(c(O)c23)C(=O)c2c(OC)cc(OC)cc2C4(C)C)c(O)c1")
5.04
>>> observed_measurement("COc1cc(C)c(-c2cc(O)c(Br)c3cc4c(c(O)c23)C(=O)c2c(cc(OC)c(Br)c2O)C4(C)C)c(O)c1")
5.34
>>> observed_measurement("COc1cc(C)c(-c2cc(OC)c(Br)c3cc4c(c(O)c23)C(=O)c2c(O)cc(O)cc2C4(C)C)c(O)c1")
5.28
>>> observed_measurement("COc1cc(C)c(C(=O)c2c(CC(C)=O)cc3c(c2O)C(=O)c2c(cc(OC)c(Br)c2OC)C3(C)C)c(OC)c1")
4.91

API: the following record is the query input.
Name the recorded pIC50 for COc1cc(C)c(-c2cc(O)cc3cc4c(c(O)c23)C(=O)c2c(O)cc(OC)cc2C4(C)C)c(O)c1 .
4.78

* * *

Tested on: HepG2
Assay Overview: Cytotoxicity against human HepG2 cells assessed as cell growth inhibition incubated for 48 hrs by MTT assay
Format: functional, cell-based
Study Conditions: HepG2, 48 h
Structures can show the parent of a compound that is named as a salt.
Result Type: log10 of IC50 (log10 of the value in µM)
# values: log10(IC50), units µM

Below: 3 molecules and their reported log10 of IC50.
>>> observed_measurement("COc1cccc2c1C(=O)c1c(O)c3c(c(O)c1C2=O)C[C@@](O)(C(=O)CO)C[C@@H]3O[C@H]1C[C@H](N)[C@H](O)[C@H](C)O1 [DOXORUBICIN HYDROCHLORIDE]")
-0.10
>>> observed_measurement("COc1cc(C)c(C(=O)c2c(CC(C)=O)cc3c(c2O)C(=O)c2c(cc(OC)c(Br)c2OC)C3(C)C)c(OC)c1")
1.13
>>> observed_measurement("COc1cc(C)c(-c2cc(O)cc3cc4c(c(O)c23)C(=O)c2c(cc(OC)c(Br)c2O)C4(C)C)c(O)c1")
0.54

Fill in the blank: the reported log10 of IC50 of COc1cc(C)c(-c2cc(OC)c(Br)c3cc4c(c(O)c23)C(=O)c2c(O)cc(O)cc2C4(C)C)c(O)c1 is ____.
0.65

Recorded log10 of IC50 of COc1cc(C)c(-c2cc(O)cc3cc4c(c(O)c23)C(=O)c2c(cc(OC)c(Br)c2OC)C4(C)C)c(O)c1 , please.
0.76

Reported log10 of IC50 for COc1cc(-c2c(O)cc(OC)c(OC)c2C)c2c(O)c3c(cc2c1)C(C)(C)c1cc(O)cc(O)c1C3=O : what is it?
0.68

Which log10 of IC50 is reported for this molecule? COc1cc(C)c(-c2cc(OC)cc3cc4c(c(O)c23)C(=O)c2c(OC)cc(OC)cc2C4(C)C)c(O)c1
0.76

* * *

Assay Overview: Selectivity index, ratio of IC50 for cytotoxicity against African green monkey Vero cells to IC50 for cytotoxicity against human A549 cells
Format: toxicity, cell-based
Study Conditions: Vero cells and A549 cells, read-out: Ratio IC50
Result Type: selectivity ratio
Please give the numeric answer without any surrounding text.

I would be grateful if you could share the reported selectivity ratio for COc1cc(-c2c(O)cc(OC)c(Cc3c(OC)cc(O)c(-c4cc(OC)cc5cc6c(c(O)c45)C(=O)c4c(O)cc(O)cc4C6(C)C)c3C)c2C)c2c(O)c3c(cc2c1)C(C)(C)c1cc(O)cc(O)c1C3=O .
3

* * *

Tested on: HepG2
Assay Overview: Cytotoxicity against human HepG2 cells assessed as cell growth inhibition incubated for 48 hrs by MTT assay
Type: functional, cell-based
Study Conditions: HepG2, 48 h
IC50 values by entry
A number alone suffices; assume µM.

>>> observed_measurement("COc1cc(C)c(-c2cc(OC)cc3cc4c(c(O)c23)C(=O)c2c(cc(OC)c(Br)c2O)C4(C)C)c(O)c1")
4.7

// switching to the query compound
Given COC1=CC(=O)C(c2cc(OC)cc3cc4c(c(O)c23)C(=O)c2c(O)cc(O)cc2C4(C)C)=C(C)C1=O , state its recorded IC50.
12.4

* * *

System: MCF7
Assay Overview: Cytotoxicity against human MCF7 cells assessed as cell growth inhibition incubated for 48 hrs by MTT assay
Format: functional, cell-based
Study Conditions: MCF7, 48 h
Result Type: IC50 (µM)
Give just the number in µM; leave the unit off.

These recorded examples may help you get a feel for the data.
>>> observed_measurement("COc1cc(C)c(-c2cc(OC)cc3cc4c(c(O)c23)C(=O)c2c(cc(O)c(Br)c2O)C4(C)C)c(O)c1")
8.9
>>> observed_measurement("COc1cc(-c2c(O)cc(OC)c(OC)c2C)c2c(O)c3c(cc2c1)C(C)(C)c1cc(O)cc(O)c1C3=O")
12.3
>>> observed_measurement("COc1cc(C)c(-c2cc(O)cc3cc4c(c(O)c23)C(=O)c2c(cc(OC)c(Br)c2OC)C4(C)C)c(O)c1")
8.6

Dear colleague, I am looking for the recorded IC50 of the following compound: COc1cc(C)c(-c2cc(OC)cc3cc4c(c(O)c23)C(=O)c2c(cc(OC)c(Br)c2O)C4(C)C)c(O)c1
7.9

Recorded IC50 of COC1=CC(=O)C(c2cc(OC)cc3cc4c(c(O)c23)C(=O)c2c(O)cc(O)cc2C4(C)C)=C(C)C1=O , please.
9.6
